- Test system: bile secretion
- experimentalProtocol: Cholagogic action, bile secretion (Experimental Example 5); note: test concentration or dose not given here
- Format: in vivo, male Wistar rats
- conditionSet: 4-5 hour after dose, intraduodenal; control 53.3; Table 6
The entries below come with measured Bile secretion amount, percentage of the hour before dose values attached.
The reply should contain only the number, in %.

{"compound": "COC(=O)C1=COC(O)[C@H]2[C@@H]1CC[C@@H]2C (stereo partly shown)", "result": 71.8}
{"compound": "C[C@@H](CO)[C@H]1CC[C@H](C)[C@H]1CO", "result": 59.1}
{"compound": "C[C@H]1COC(O)[C@H]2[C@@H]1CC[C@@H]2C (stereo partly shown)", "result": 59.8}

Shift focus to the following entry.
Query (compound): CC1=COC(O)[C@H]2[C@@H]1CC[C@@H]2C (stereo partly shown) ; field requested: Bile secretion amount, percentage of the hour before dose
58.3
